Vitamin D3 receptor (Bos taurus, UniProt Q28037) pIC50 data
Sequence (Q28037 whole entry): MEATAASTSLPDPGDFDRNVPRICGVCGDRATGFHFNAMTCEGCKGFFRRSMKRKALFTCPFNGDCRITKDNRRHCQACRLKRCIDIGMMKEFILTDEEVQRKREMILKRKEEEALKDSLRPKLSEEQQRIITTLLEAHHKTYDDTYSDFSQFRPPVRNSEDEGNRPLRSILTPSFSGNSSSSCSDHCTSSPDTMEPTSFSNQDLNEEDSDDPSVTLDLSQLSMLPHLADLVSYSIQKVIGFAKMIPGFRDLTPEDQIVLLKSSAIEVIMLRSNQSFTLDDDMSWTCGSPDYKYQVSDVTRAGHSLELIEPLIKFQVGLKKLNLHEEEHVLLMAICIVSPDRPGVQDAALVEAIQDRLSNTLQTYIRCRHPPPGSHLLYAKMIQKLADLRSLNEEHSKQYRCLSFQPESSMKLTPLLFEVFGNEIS
As a rule, pIC50 stands for the negative log10 of the concentration, concentration in M.

{"columns": ["sample.smiles", "property.name", "observed"],
 "data": [
  ["C[C@H](CCC(=O)O)[C@H]1CC[C@H]2[C@@H]3CC[C@@H]4C[C@@H](CC(C)(C)O)CC[C@]4(C)[C@H]3CC[C@]12C", "pIC50", 7.17]
]}

So what does the record say about pIC50 for C[C@H](CCC(=O)O)[C@H]1CC[C@H]2[C@@H]3CC[C@@H]4C[C@H](CC(C)(C)O)CC[C@]4(C)[C@H]3CC[C@]12C ?
8.68

Measured values drawn from ChEMBL document CHEMBL4765478 for this set.
